- PROCEDURE_DETAILS: Acute toxicity in Albino Swiss mouse assessed as change in urination volume at 300 mg/kg, po administered as single dose measured after 14 days
- Assay type: organism-based
- MEASUREMENT_PARAMETERS: in vivo, 336 h, time 14 day
QUANTITY_MEASURED: Activity

These recorded examples may help you get a feel for the data.
1) COc1ccc(-c2cn(CCNC3=CC(=O)c4ccccc4C3=O)nn2)cc1
Non-Toxic
2) Cc1ccc(-c2cn(CCNC3=CC(=O)c4ccccc4C3=O)nn2)cc1
Non-Toxic
3) CC(C)(O)c1cn(CCNC2=CC(=O)c3ccccc3C2=O)nn1
Non-Toxic
4) O=C1C=C(NCCn2cc(-c3ccccc3)nn2)C(=O)c2ccccc21
Non-Toxic
5) O=C1C=C(NCCn2cc(C3(O)CCCCC3)nn2)C(=O)c2ccccc21
Non-Toxic

Consider the compound CCN(CC)CCCC(C)Nc1ccnc2cc(Cl)ccc12 (stereo unspecified) . State its measured Activity.
Non-Toxic

The reported measurements were obtained from ChEMBL document CHEMBL5321233.
